The reported measurements were obtained from ChEMBL document CHEMBL4689842.

# Test system: Fibroblast
# method-notes: Multiplex assay against human fibroblast
# Type: toxicity, cell-based
# condition-context: 24 h, 1 µM, compound concentration 1 uM, replicate 2
For each record, check the reported Population Tubulin-Different-Phenotype (%): if it is below 20% write condition met, else write condition not met.

>  <compound>
Cc1cc(C)cc(-c2cnc3cc(Cl)c(-c4cccc(O)c4)cc3c2OCCCN)c1

>  <group-label>
condition not met

$$$$
>  <compound>
COc1cc(-n2cnc3cc(-c4ccc(Cl)cc4)sc3c2=O)ccc1OCCN1CCCC1

>  <group-label>
condition not met

$$$$
>  <compound>
CN(C)CC#Cc1ccc(OCCCc2sc(N3CCc4cccc(C(=O)Nc5nc6ccccc6s5)c4C3)nc2C(=O)O)c(F)c1

>  <group-label>
condition not met

$$$$
>  <compound>
CN(C)C(=O)/C(C#N)=C/c1ccc(-c2nc3cnc4[nH]ccc4c3n2C2CCCCC2)o1

>  <group-label>
condition not met

$$$$
>  <compound>
CC(C)NCC(O)COc1ccc(CCOCC2CC2)cc1.Cl (stereo not drawn) [BETAXOLOL HYDROCHLORIDE]

>  <group-label>
condition met

$$$$
>  <compound>
Cc1csc2c(N[C@@H](C)CN3CCN(S(=O)(=O)c4ccc(Cl)c(Cl)c4)CC3)ncnc12

>  <group-label>
condition not met

$$$$
>  <compound>
CCN(CC)CCCCNc1ncc2cc(-c3cc(OC)cc(OC)c3)c(NC(=O)NC(C)(C)C)nc2n1

>  <group-label>
condition met

$$$$
>  <compound>
CNc1nc(NCc2ccc(NS(C)(=O)=O)cc2Cl)cc(-c2ccccn2)n1

>  <group-label>
condition met

$$$$
>  <compound>
Cc1[nH]c(/C=C2\C(=O)Nc3ccc(S(=O)(=O)N(C)c4cccc(Cl)c4)cc32)c(C)c1C(=O)N1CCN(C)CC1

>  <group-label>
condition not met

$$$$
>  <compound>
C=CC(=O)Nc1ccc2ncnc(Nc3ccc(OCc4cccc(F)c4)c(Cl)c3)c2c1.Cc1ccc(S(=O)(=O)O)cc1

>  <group-label>
condition not met

$$$$
>  <compound>
OC1(c2ccc(Cl)cc2)CCN(Cc2c[nH]c3ccccc23)CC1

>  <group-label>
condition met

$$$$
>  <compound>
C=CC(=O)Nc1cccc(C(=O)Nc2ccc(Nc3cc(-c4[nH]c(SC)nc4C)ccn3)cc2)c1

>  <group-label>
condition not met

$$$$
>  <compound>
COc1cccc([C@@H](C)NCCCc2ccccc2Cl)c1.Cl [TECALCET HYDROCHLORIDE]

>  <group-label>
condition met

$$$$
>  <compound>
CN1CCN(CCOc2cc(OC3CCOCC3)c3c(Nc4c(Cl)ccc5c4OCO5)ncnc3c2)CC1

>  <group-label>
condition met

$$$$
>  <compound>
C[C@@]1(C(=O)Nc2ccc(F)nc2)CCCN1c1nc(Nc2cc(C3CC3)n[nH]2)c2cccn2n1

>  <group-label>
condition not met

$$$$
>  <compound>
COc1ncc(-c2ccc3nccc(-c4ccnnc4)c3c2)cc1NS(=O)(=O)c1ccc(F)cc1F

>  <group-label>
condition not met

$$$$
>  <compound>
CN1CCC[C@@H]1CCO[C@](C)(c1ccccc1)c1ccc(Cl)cc1.O=C(O)/C=C/C(=O)O [CLEMASTINE FUMARATE]

>  <group-label>
condition met

$$$$
>  <compound>
Cl.N#Cc1ccc2[nH]cc(CCCCN3CCN(c4ccc5oc(C(N)=O)cc5c4)CC3)c2c1 [VILAZODONE HYDROCHLORIDE]

>  <group-label>
condition met

$$$$
>  <compound>
C=CC(=O)Nc1cc2c(Nc3ccc(F)c(Cl)c3)ncnc2cc1OCCCN1CCOCC1.Cl.Cl [CANERTINIB DIHYDROCHLORIDE]

>  <group-label>
condition not met

$$$$
>  <compound>
Cc1nc(Nc2n[nH]c3c2CN(C(=O)N[C@H](CN(C)C)c2ccccc2)C3(C)C)c2sccc2n1

>  <group-label>
condition met

$$$$
>  <compound>
c1cn2cc(-c3ccc4cn[nH]c4c3)nc(Nc3ccc(N4CCOCC4)cc3)c2n1

>  <group-label>
condition not met

$$$$
>  <compound>
CN1CCCC(n2nc(Cc3ccc(Cl)cc3)c3ccccc3c2=O)CC1.Cl (stereo not drawn) [AZELASTINE HYDROCHLORIDE]

>  <group-label>
condition not met

$$$$
>  <compound>
NC(=O)Nc1cc(-c2cccc(F)c2)sc1C(=O)N[C@H]1CCCNC1

>  <group-label>
condition met

$$$$
>  <compound>
CC[C@H](C)C(=O)O[C@H]1C[C@@H](C)C=C2C=C[C@H](C)[C@H](CC[C@@H]3C[C@@H](O)CC(=O)O3)[C@H]21

>  <group-label>
condition met

$$$$
>  <compound>
Cc1nc(-c2ccc(-c3ccc(C(=O)N4CCc5cc6c(cc54)C4(CCN(C)CC4)CO6)cc3)c(C)c2)no1

>  <group-label>
condition not met

$$$$
>  <compound>
C[C@@H](NCCCc1cccc(C(F)(F)F)c1)c1cccc2ccccc12.Cl [CINACALCET HYDROCHLORIDE]

>  <group-label>
condition met

$$$$
>  <compound>
CC(C)(O)CNc1ncc(-c2ccnc(Nc3ccnc(Cl)c3)n2)c(CC2CC2)n1

>  <group-label>
condition met

$$$$
>  <compound>
Cc1c(-c2ccc(O)cc2)n(Cc2ccc(OCCN3CCCCCC3)cc2)c2ccc(O)cc12

>  <group-label>
condition met

$$$$
>  <compound>
Cn1cc(-c2[nH]c3cc(NC(=O)[C@H](N)C4CCCCC4)cc4c3c2C=NNC4=O)cn1

>  <group-label>
condition met

$$$$
>  <compound>
O=C1NCN(c2ccccc2)C12CCN(CCCOc1ccc(F)cc1)CC2 [SPIRAMIDE]

>  <group-label>
condition met

$$$$
>  <compound>
CN1CCN(c2ccc(OC(F)(F)F)c(Nc3ncc4c(n3)-c3c(c(C(N)=O)nn3CCO)CC4)c2)CC1

>  <group-label>
condition met

$$$$
>  <compound>
CN(C)C(=O)N[C@H]1CC[C@H](CCN2CCN(c3cccc(Cl)c3Cl)CC2)CC1.Cl [CARIPRAZINE HYDROCHLORIDE]

>  <group-label>
condition met

$$$$
>  <compound>
Cc1nc(-c2cn3c(n2)-c2ccc(-c4cnn(C(C)(C)C(N)=O)c4)cc2OCC3)n(C(C)C)n1

>  <group-label>
condition not met

$$$$

----------
# Tested on: U2OS
# method-notes: Multiplex assay against U2OS
# Format: toxicity, cell-based
# condition-context: human, 24 h, 10 µM, compound concentration 10 uM, replicate 1
metric-name: Population Tubulin-Different-Phenotype (%)

>  <compound>
CN1CCN(c2ccc(OC(F)(F)F)c(Nc3ncc4c(n3)-c3c(c(C(N)=O)nn3CCO)CC4)c2)CC1

>  <measurement>
53

$$$$
>  <compound>
CN(C)C(=O)/C(C#N)=C/c1ccc(-c2nc3cnc4[nH]ccc4c3n2C2CCCCC2)o1

>  <measurement>
55

$$$$
>  <compound>
OC1(c2ccc(Cl)cc2)CCN(Cc2c[nH]c3ccccc23)CC1

>  <measurement>
50

$$$$
>  <compound>
C=CC(=O)Nc1cc2c(Nc3ccc(F)c(Cl)c3)ncnc2cc1OCCCN1CCOCC1.Cl.Cl [CANERTINIB DIHYDROCHLORIDE]

>  <measurement>
9

$$$$
>  <compound>
CN1C(=O)c2sccc2N(C)c2nc(Nc3ccc(S(N)(=O)=O)cc3)ncc21

>  <measurement>
42

$$$$

----------
# Test system: HEK-293T
# method-notes: Multiplex assay against HEK293T
# Assay type: toxicity, cell-based
# condition-context: human, 12 h, 10 µM, compound concentration 10 uM, replicate 2
For each record, check the reported Total Cell Count: if it is below 200 write Met, else write Not met.

>  <compound>
C[C@@H](NCCCc1cccc(C(F)(F)F)c1)c1cccc2ccccc12.Cl [CINACALCET HYDROCHLORIDE]

>  <group-label>
Met

$$$$
>  <compound>
CN(C)C(=O)/C(C#N)=C/c1ccc(-c2nc3cnc4[nH]ccc4c3n2C2CCCCC2)o1

>  <group-label>
Not met

$$$$
>  <compound>
Cc1cc(C)cc(-c2cnc3cc(Cl)c(-c4cccc(O)c4)cc3c2OCCCN)c1

>  <group-label>
Met

$$$$
>  <compound>
C=CC(=O)Nc1cccc(C(=O)Nc2ccc(Nc3cc(-c4[nH]c(SC)nc4C)ccn3)cc2)c1

>  <group-label>
Not met

$$$$
>  <compound>
CN1CCC[C@@H]1CCO[C@](C)(c1ccccc1)c1ccc(Cl)cc1.O=C(O)/C=C/C(=O)O [CLEMASTINE FUMARATE]

>  <group-label>
Met

$$$$
>  <compound>
Cn1cc(-c2[nH]c3cc(NC(=O)[C@H](N)C4CCCCC4)cc4c3c2C=NNC4=O)cn1

>  <group-label>
Met

$$$$
>  <compound>
COc1cc(-n2cnc3cc(-c4ccc(Cl)cc4)sc3c2=O)ccc1OCCN1CCCC1

>  <group-label>
Not met

$$$$
